Test system: feral pigeons
Experiment: Three day no-choice feeding test with feral pigeons
Format: in vivo
Settings: 0.5% w/w compound/pellet, after the test compared with before, ± standard deviation
recorded-metric: Mean weight difference (grams)

| molecule | observed-result |
| --- | --- |
| COc1cc(C=CC(=O)O)cc(OC)c1OC [3,4,5-Trimethoxycinnamic acid] | -1.5 |
| COc1cc(C=CC(=O)O)ccc1O [4-Hydroxy-3-methoxycinnamic acid] | -0.2 |
| O=C(O)C=Cc1ccc(O)c(O)c1 [3,4-Dihydroxycinnamic acid] | 2.3 |
| NC(=O)C=Cc1ccccc1 [Cinnamamide, cinnamamide] | -16.2 |
| COc1cc(C=CC(=O)O)cc(OC)c1O [4-Hydroxy-3,5-dimethoxy-cinnamic acid, 4-Hydroxy-3,5-dimethoxycinnamic acid] | 2.3 |
